Let's look at some compounds and their measured pIC50.
Test system: 941728-121-R-J1-PDC complex spheroid viability
assay-protocol: Anticancer human tumor 941728-121-R-J1-PDC patient-derived lung adenocarcinoma cell line growth inhibition [RAS]
condition-info: curve of first compound; second compound 1 µM
pIC50: −log10 of the molar value.
readout-kind: pIC50

{"compound": "CCc1c2c(nc3ccc(O)cc13)-c1cc3c(c(=O)n1C2)COC(=O)[C@]3(O)CC + C=CC(=O)N1CCN(c2nc(OCC3CCCN3C)nc3c(F)c(-c4nc(N)cc(C)c4C(F)(F)F)c(Cl)cc23)C(C)C1", "system-tested": "941728-121-R-J1-PDC complex spheroid viability", "reported-measurement": "> 9.02"}
{"compound": "CC(C)NCC(C(=O)N1CCN(c2ncnc3c2C(C)CC3O)CC1)c1ccc(Cl)cc1 (stereo not given) + C=CC(=O)N1CCN(c2nc(OCC3CCCN3C)nc3c(F)c(-c4nc(N)cc(C)c4C(F)(F)F)c(Cl)cc23)C(C)C1", "system-tested": "941728-121-R-J1-PDC complex spheroid viability", "reported-measurement": "> 7.50"}
{"compound": "Cc1nc(N2CCC3(CC2)COC(C)C3N)c(CO)nc1Sc1ccnc(N)c1Cl (stereo not given) + C=CC(=O)N1CCN(c2nc(OCC3CCCN3C)nc3c(F)c(-c4nc(N)cc(C)c4C(F)(F)F)c(Cl)cc23)C(C)C1", "system-tested": "941728-121-R-J1-PDC complex spheroid viability", "reported-measurement": "> 7.50"}
{"compound": "CC(Nc1ccc2c(c1)OCCn1cc(N3C(=O)OCC3C(F)F)nc1-2)C(N)=O (stereo not given) + C#Cc1c(F)ccc2cc(O)cc(-c3ncc4c(N5CC6CCC(C5)N6)nc(OCC56CCCN5CC(F)C6)nc4c3F)c12", "system-tested": "941728-121-R-J1-PDC complex spheroid viability", "reported-measurement": "> 7.50"}
{"compound": "CC1(O)CCCC1n1c(=O)c(C(F)F)cc2cnc(NC3CCN(S(C)(=O)=O)CC3)nc21 (stereo not given) + C=CC(=O)N1CCN(c2nc(OCC3CCCN3C)nc3c(F)c(-c4nc(N)cc(C)c4C(F)(F)F)c(Cl)cc23)C(C)C1", "system-tested": "941728-121-R-J1-PDC complex spheroid viability", "reported-measurement": "> 7.50"}
{"compound": "C=CC(=O)N1CCN(c2nc(OCC3CCCN3C)nc3c(F)c(-c4nc(N)cc(C)c4C(F)(F)F)c(Cl)cc23)C(C)C1 (stereo not given) + C#Cc1c(F)ccc2cc(O)cc(-c3ncc4c(N5CC6CCC(C5)N6)nc(OCC56CCCN5CC(F)C6)nc4c3F)c12", "system-tested": "941728-121-R-J1-PDC complex spheroid viability", "reported-measurement": "> 8.50"}
{"compound": "CC(C)NCC(C(=O)N1CCN(c2ncnc3c2C(C)CC3O)CC1)c1ccc(Cl)cc1 (stereo not given) + C#Cc1c(F)ccc2cc(O)cc(-c3ncc4c(N5CC6CCC(C5)N6)nc(OCC56CCCN5CC(F)C6)nc4c3F)c12", "system-tested": "941728-121-R-J1-PDC complex spheroid viability", "reported-measurement": "> 7.50"}
{"compound": "CCC(CC)c1cc(NC2CCC(N)C2)n2nccc2n1 (stereo not given) + C#Cc1c(F)ccc2cc(O)cc(-c3ncc4c(N5CC6CCC(C5)N6)nc(OCC56CCCN5CC(F)C6)nc4c3F)c12", "system-tested": "941728-121-R-J1-PDC complex spheroid viability", "reported-measurement": "> 7.50"}
{"compound": "CC(Nc1ccc2c(c1)OCCn1cc(N3C(=O)OCC3C(F)F)nc1-2)C(N)=O (stereo not given) + C=CC(=O)N1CCN(c2nc(OCC3CCCN3C)nc3c(F)c(-c4nc(N)cc(C)c4C(F)(F)F)c(Cl)cc23)C(C)C1", "system-tested": "941728-121-R-J1-PDC complex spheroid viability", "reported-measurement": "> 7.50"}
{"compound": "CC(C)n1nc(-c2ccc3oc(N)nc3c2)c2c(N)ncnc21 + C=CC(=O)N1CCN(c2nc(OCC3CCCN3C)nc3c(F)c(-c4nc(N)cc(C)c4C(F)(F)F)c(Cl)cc23)C(C)C1", "system-tested": "941728-121-R-J1-PDC complex spheroid viability", "reported-measurement": "> 9.50"}

====

Test system: 941728-121-R-J1-PDC complex spheroid viability
assay-protocol: Anticancer human tumor 941728-121-R-J1-PDC cell line growth inhibition [RAS];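 note: spheroids exposed to compounds for 7 days before readout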;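 for viability, T/C: 100% = DMSO vehicle control viability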
condition-info: second compound 0.000949 µM; first compound 0.316 µM; stronger effect = lower value
Label Condition met when viability, T/C < 20%; otherwise Condition not met.

{"compound": "Nc1ccn(C2OC(CO)C(O)C2(F)F)c(=O)n1 (stereo not drawn) + CCn1c(-c2cc(N3CCN(C)CC3)cnc2C(C)OC)c2c3cc(ccc31)-c1csc(n1)CC(NC(=O)C1CC1C)C(=O)N1CCCC(N1)C(=O)OCC(C)(C)C2", "qualitative-label": "Condition not met"}
{"compound": "CC1(O)CCCC1n1c(=O)c(C(F)F)cc2cnc(NC3CCN(S(C)(=O)=O)CC3)nc21 (stereo not drawn) + CCn1c(-c2cc(N3CCN(C)CC3)cnc2C(C)OC)c2c3cc(ccc31)-c1csc(n1)CC(NC(=O)C1CC1C)C(=O)N1CCCC(N1)C(=O)OCC(C)(C)C2", "qualitative-label": "Condition not met"}
{"compound": "CCN1CCN(Cc2ccc(Nc3ncc(F)c(-c4cc(F)c5nc(C)n(C(C)C)c5c4)n3)nc2)CC1 + CCn1c(-c2cc(N3CCN(C)CC3)cnc2C(C)OC)c2c3cc(ccc31)-c1csc(n1)CC(NC(=O)C1CC1C)C(=O)N1CCCC(N1)C(=O)OCC(C)(C)C2", "qualitative-label": "Condition not met"}
{"compound": "CCN1CCN(Cc2ccc(Nc3ncc(F)c(-c4cc(F)c5nc(C)n(C(C)C)c5c4)n3)nc2)CC1 + CCn1c(-c2cccnc2C(C)OC)c2c3cc(ccc31)N1CCOC(CC(NC(=O)C(C(C)C)N(C)C(=O)C3(F)CCN(C(=O)C#CC(C)(C)N(C)C)CC3)C(=O)N3CCCC(N3)C(=O)OCC(C)(C)C2)C1", "qualitative-label": "Condition met"}
{"compound": "CCC(CC)c1cc(NC2CCC(N)C2)n2nccc2n1 (stereo not drawn) + CCn1c(-c2cccnc2C(C)OC)c2c3cc(ccc31)N1CCOC(CC(NC(=O)C(C(C)C)N(C)C(=O)C3(F)CCN(C(=O)C#CC(C)(C)N(C)C)CC3)C(=O)N3CCCC(N3)C(=O)OCC(C)(C)C2)C1", "qualitative-label": "Condition not met"}
{"compound": "CC(Nc1ccc2c(c1)OCCn1cc(N3C(=O)OCC3C(F)F)nc1-2)C(N)=O (stereo not drawn) + CCn1c(-c2cccnc2C(C)OC)c2c3cc(ccc31)N1CCOC(CC(NC(=O)C(C(C)C)N(C)C(=O)C3(F)CCN(C(=O)C#CC(C)(C)N(C)C)CC3)C(=O)N3CCCC(N3)C(=O)OCC(C)(C)C2)C1", "qualitative-label": "Condition met"}
{"compound": "C=CC(=O)Nc1cc(Nc2nccc(-c3cn(C)c4ccccc34)n2)c(OC)cc1N(C)CCN(C)C + CCn1c(-c2cc(N3CCN(C)CC3)cnc2C(C)OC)c2c3cc(ccc31)-c1csc(n1)CC(NC(=O)C1CC1C)C(=O)N1CCCC(N1)C(=O)OCC(C)(C)C2", "qualitative-label": "Condition not met"}
{"compound": "CC(Nc1ccc2c(c1)OCCn1cc(N3C(=O)OCC3C(F)F)nc1-2)C(N)=O (stereo not drawn) + CCn1c(-c2cc(N3CCN(C)CC3)cnc2C(C)OC)c2c3cc(ccc31)-c1csc(n1)CC(NC(=O)C1CC1C)C(=O)N1CCCC(N1)C(=O)OCC(C)(C)C2", "qualitative-label": "Condition met"}

====

Let's look at some molecules and their measured viability, T/C.
Tested on: 941728-121-R-J1-PDC complex spheroid viability
assay-protocol: Anticancer human tumor 941728-121-R-J1-PDC cell line growth inhibition [RAS];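 note: spheroids exposed to compounds for 7 days before readout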;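 for viability, T/C: 100% = DMSO vehicle control viability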
condition-info: second compound 3.16 µM; first compound 0.00316 µM; stronger effect = lower value

{"molecule": "C=CC(=O)Nc1cc(Nc2nccc(-c3cn(C)c4ccccc34)n2)c(OC)cc1N(C)CCN(C)C + C#Cc1c(F)ccc2cc(O)cc(-c3ncc4c(N5CC6CCC(C5)N6)nc(OCC56CCCN5CC(F)C6)nc4c3F)c12", "system-tested": "941728-121-R-J1-PDC complex spheroid viability", "viability, T/C [%]": 30.3}
{"molecule": "CC(C)n1nc(-c2ccc3oc(N)nc3c2)c2c(N)ncnc21 + C#Cc1c(F)ccc2cc(O)cc(-c3ncc4c(N5CC6CCC(C5)N6)nc(OCC56CCCN5CC(F)C6)nc4c3F)c12", "system-tested": "941728-121-R-J1-PDC complex spheroid viability", "viability, T/C [%]": 25.9}
{"molecule": "O=C(c1ccc(F)c(F)c1Nc1ccc(I)cc1F)N1CC(O)([C@@H]2CCCCN2)C1 + C#Cc1c(F)ccc2cc(O)cc(-c3ncc4c(N5CC6CCC(C5)N6)nc(OCC56CCCN5CC(F)C6)nc4c3F)c12", "system-tested": "941728-121-R-J1-PDC complex spheroid viability", "viability, T/C [%]": 24.5}
{"molecule": "C=CC(=O)N1CCN(c2nc(OCC3CCCN3C)nc3c(F)c(-c4nc(N)cc(C)c4C(F)(F)F)c(Cl)cc23)C(C)C1 (stereo unspecified) + C#Cc1c(F)ccc2cc(O)cc(-c3ncc4c(N5CC6CCC(C5)N6)nc(OCC56CCCN5CC(F)C6)nc4c3F)c12", "system-tested": "941728-121-R-J1-PDC complex spheroid viability", "viability, T/C [%]": 22.8}
{"molecule": "CCN1CCN(Cc2ccc(Nc3ncc(F)c(-c4cc(F)c5nc(C)n(C(C)C)c5c4)n3)nc2)CC1 + C#Cc1c(F)ccc2cc(O)cc(-c3ncc4c(N5CC6CCC(C5)N6)nc(OCC56CCCN5CC(F)C6)nc4c3F)c12", "system-tested": "941728-121-R-J1-PDC complex spheroid viability", "viability, T/C [%]": 28.8}
{"molecule": "Nc1ccn(C2OC(CO)C(O)C2(F)F)c(=O)n1 (stereo unspecified) + C#Cc1c(F)ccc2cc(O)cc(-c3ncc4c(N5CC6CCC(C5)N6)nc(OCC56CCCN5CC(F)C6)nc4c3F)c12", "system-tested": "941728-121-R-J1-PDC complex spheroid viability", "viability, T/C [%]": 30.4}

Hey, just so you know, these numbers are from PubChem BioAssay AID2060896.
